target: PDE10A enzyme (Homo sapiens); construct: made in house; host or cells: E. coli BL21(DE3); experiment: PDE10A inhibition assay; assay type: biochemical; conditions: 3H-labelled cAMP substrate 5 nM, SPA beads, one hr at room temperature
pIC50: −log10 of the molar value.
measured endpoint: pIC50

[
  {
    "test smiles": "CCc1ccc(C)n2nc(CCc3nc(-c4ccccc4)nn3C)nc12",
    "pIC50": 8.12
  },
  {
    "test smiles": "Cc1ncc(C)n2nc(/C=C/c3nc(-c4ccco4)n(C)n3)nc12",
    "pIC50": 7.22
  },
  {
    "test smiles": "COc1ccc(C)n2nc(CCc3nc(-c4ccccc4)nn3C(C)C)nc12",
    "pIC50": 7.25
  }
]

(P) Cc1cccn2nc(CCc3nc(-c4ccccc4)nn3C)nc12
(Q) Cc1ccc(C)n2nc(CCc3nc(-c4ccccc4)nn3C)nc12
(R) Cc1ncc(C)n2nc(CCc3nc(-c4nccs4)nn3C)nc12
(S) Cc1ncc(C)n2nc(CCc3nc(-c4ccccc4)nn3C)nc12
(T) Cc1ncc(C)n2nc(CCc3nc(-c4ccccc4)nn3CCCN)nc12
Your job: order these 5 records by pIC50, ascending. As an answer, provide the labels arranged in the order called for.
P, T, R, S, Q
(P: 6.77, T: 7.00, R: 7.44, S: 7.82, Q: 8.17)

(I) Cc1cccc2nc(CSc3nc(-c4ccccc4)n[nH]3)nn12
(II) Cc1ncc(C)n2nc(CCc3nc(-c4ccccc4)nn3CCC#N)nc12
Lowest pIC50? choose I or II Identify your pick by its label.
I
(I: 6.70, II: 7.60)

* * *

molecular target: PDE10A enzyme (Homo sapiens, UniProt Q9Y233)
Sequence (Q9Y233 716-1055): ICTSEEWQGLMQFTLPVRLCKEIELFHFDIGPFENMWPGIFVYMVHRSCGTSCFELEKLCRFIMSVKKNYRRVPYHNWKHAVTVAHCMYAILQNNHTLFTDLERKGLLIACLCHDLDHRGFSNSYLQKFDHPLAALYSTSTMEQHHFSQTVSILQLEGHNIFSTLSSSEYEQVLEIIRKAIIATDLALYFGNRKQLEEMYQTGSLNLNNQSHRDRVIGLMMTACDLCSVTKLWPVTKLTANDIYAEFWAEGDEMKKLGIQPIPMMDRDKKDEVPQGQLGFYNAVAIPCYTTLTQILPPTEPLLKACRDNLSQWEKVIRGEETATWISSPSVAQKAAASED
measured endpoint: IC50 (nM)

Solved entries:
[
  {
    "test smiles": "COCCn1nc(-c2ccccc2)nc1CCc1nc2c(OC)ccc(C)n2n1",
    "measured endpoint": "IC50",
    "value unit": "nM",
    "measurement": 62
  },
  {
    "test smiles": "CCOC(=O)Cn1nc(-c2ccccc2)nc1CCc1nc2c(OC)ccc(C)n2n1",
    "measured endpoint": "IC50",
    "value unit": "nM",
    "measurement": 81
  },
  {
    "test smiles": "Cc1ncc(C)n2nc(CCc3nc(-c4cncs4)nn3C)nc12",
    "measured endpoint": "IC50",
    "value unit": "nM",
    "measurement": 26
  },
  {
    "test smiles": "Cc1ncc(C)n2nc(CCc3nc(-c4ncccn4)nn3C)nc12",
    "measured endpoint": "IC50",
    "value unit": "nM",
    "measurement": 53
  }
]

(a) Cc1ncc(C)n2nc(CCc3nc(-c4ccco4)n(C)n3)nc12
(b) Cc1ncc(C)n2nc(CCc3nc(-c4cscn4)nn3C)nc12
(c) Cc1csc(-c2nc(CCc3nc4c(C)ncc(C)n4n3)n(C)n2)n1
(d) CCCn1nc(-c2ccccc2)nc1CCc1nc2c(CC)ccc(C)n2n1
Your job: order these 4 records by IC50, ascending. As an answer, provide the labels arranged in the order called for.
d, b, a, c
(d: 10 nM, b: 25 nM, a: 38 nM, c: 76 nM)
